Source of measurements: the RNAGym collection of RNA variant scans (doi:10.7554/elife.80360)

B1: CPEB3 Ribozyme (parent)
chain: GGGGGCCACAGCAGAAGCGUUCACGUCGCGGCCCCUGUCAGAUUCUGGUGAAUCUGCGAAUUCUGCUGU

- Variants of: B1
- runDescription: self-cleavage, relative activity (ratio to wild type); higher = more cleavage; co-transcriptional
self-cleavage below 0.8 gives FALSE; self-cleavage at or above it gives TRUE.

Reported self-cleavage at or above 0.8? U20A U26G
FALSE
